- test-details: Cell Viability - NIH 3T3 (AID 541);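 also: cells exposed to compound for 40 hours; plate controls were DMSO alone for no effect and tamoxifen positive control for full effect; nearly all actives have a fitted effect of over 25% in size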
- cond: NIH 3T3 cell viability, qHTS; series mostly up to 92.2 µM
Inconclusive results are not listed. The source made the active and inactive calls. Calls follow the shape of the dose curve; as a rule, active = well fitted cell-killing curve with a large enough effect; inconclusive = small, poorly fitted or top-dose-only effect; inactive = flat fitted curve, though single readings scatter.
assay-metric: outcome

CC1CC(OC(=O)c2ccccc2O)CC(C)(C)C1 (stereo not drawn); inactive
CC(=O)Nc1ccccc1; inactive
O=C(c1ccccc1)C(O)c1ccccc1 (stereo not drawn); inactive
O=C(O)CCCCC1CCSS1 (stereo not drawn); inactive
Cc1cc(=O)[nH]c(=S)[nH]1; inactive

Which outcome reading was recorded for the compound CCCCCC(N)=O ?
inactive

Which outcome reading was recorded for the compound CC(=O)NS(=O)(=O)c1ccc(N)cc1 ?
inactive

Which outcome reading was recorded for the compound Cc1c(N(C)C)c(=O)n(-c2ccccc2)n1C ?
inactive

###

- System: CRL-7250
- test-details: Cytotoxic Profiling of Annotated Libraries Using Quantitative High-Throughput Screening (AID 1296008); also: nearly all actives have a fitted effect of over 60% in size
- cond: Five cell lines viability, CellTiter-Glo ATP luminescence, 48-72 h
Results filed as inconclusive are left out. Activity calls are given as the source filed them. The call rests on the fitted dose curve; in most records, active means well fitted inhibition curve with a large enough effect; inconclusive means small, poorly fitted or top-dose-only effect; inactive means flat fitted curve, though single readings scatter.
assay-metric: outcome

Consider the following illustrative entries.
NC(=O)NC1NC(=O)NC1=O (stereo not given); inactive
O=C(O)c1ccc[n+]([O-])c1; inactive
O=c1[nH]c(=O)n([C@H]2C[C@H](O)[C@@H](CO)O2)cc1I; inactive
CC(=O)SC[C@@H](Cc1ccccc1)C(=O)NCC(=O)OCc1ccccc1; inactive
CCCOC(=O)c1ccc(N)cc1; inactive

Please find the next molecule below.
Which outcome reading was recorded for the molecule CCOC(=O)[C@H](CCc1ccccc1)N[C@@H](C)C(=O)N1Cc2cc(OC)c(OC)cc2C[C@H]1C(=O)O ?
inactive

###

Reported max response values follow for various compounds
- system-under-test: Nuclear receptor subfamily 1 group I member 2 (Rattus norvegicus)
- test-details: qHTS assay for small molecule activators of the rat pregnane X receptor (rPXR) signaling pathway (AID 651751); also: 0% is about no effect
- cond: rPXR reporter cells, luciferase (One-Glo), 24 h
Numbers only; they are read as %.

Observed max response on Nuclear receptor subfamily 1 group I member 2 (Rattus norvegicus) for CCCCCC(N)=O , please.
8.83

Observed max response on Nuclear receptor subfamily 1 group I member 2 (Rattus norvegicus) for CC1CC(OC(=O)c2ccccc2O)CC(C)(C)C1 (stereo unspecified) , please.
5.1

Observed max response on Nuclear receptor subfamily 1 group I member 2 (Rattus norvegicus) for FC(F)(F)C(Cl)Br (stereo unspecified) , please.
3.38

###

- system-under-test: Cytochrome P450 2D6 (Homo sapiens) (UniProt P10635)
- Sequence (P10635 whole entry, looked up): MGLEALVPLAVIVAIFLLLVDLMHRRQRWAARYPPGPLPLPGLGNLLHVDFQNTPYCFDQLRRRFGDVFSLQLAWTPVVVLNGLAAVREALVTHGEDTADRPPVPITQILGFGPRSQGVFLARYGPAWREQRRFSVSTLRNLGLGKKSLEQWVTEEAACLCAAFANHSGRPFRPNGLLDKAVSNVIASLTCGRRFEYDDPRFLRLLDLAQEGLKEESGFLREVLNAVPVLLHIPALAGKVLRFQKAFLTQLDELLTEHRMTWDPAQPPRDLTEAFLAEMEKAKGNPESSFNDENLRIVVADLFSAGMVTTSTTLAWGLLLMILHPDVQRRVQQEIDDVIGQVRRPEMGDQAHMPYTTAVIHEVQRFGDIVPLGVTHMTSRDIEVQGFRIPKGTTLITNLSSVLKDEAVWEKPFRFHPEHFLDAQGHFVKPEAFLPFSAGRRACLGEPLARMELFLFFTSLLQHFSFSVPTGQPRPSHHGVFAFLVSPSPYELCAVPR
- test-details: qHTS Assay for Inhibitors and Substrates of Cytochrome P450 2D6 (AID 891); also: nearly all actives have a fitted effect of over 60% in size
- cond: recombinant CYP2D6, luciferin-ME EGE luminescence; series mostly up to 11.4 µM
Results filed as inconclusive are left out. Calls of active or inactive are those of the source. The call rests on the fitted dose curve; in most records, active means well fitted inhibition curve with a large enough effect; inconclusive means small, poorly fitted or top-dose-only effect; inactive means no such curve, though single readings can be large or run the other way.
// allowed return values: active, inactive

Use the examples below as a reference point.
CC(=O)SC[C@@H](Cc1ccccc1)C(=O)NCC(=O)OCc1ccccc1; active
NS(=O)(=O)c1ccc(C(=O)O)cc1; inactive
CC[N+](CC)(CC(=O)Nc1c(C)cccc1C)Cc1ccccc1; active

Kindly review the next molecule as well.
What classification did CCN(CC)CCOC(=O)C(c1ccccc1)c1ccccc1 end up with in this test?
active

###

- Test system: AS120
- test-details: qHTS profiling for inhibitors of Plasmodium falciparum proliferation (AID 504749); also: nearly all actives have a fitted effect of over 60% in size
- cond: P. falciparum in erythrocytes, SYBR Green DNA, 72 h; series mostly up to 28.7 µM
Inconclusive results are not listed. Calls of active or inactive are those of the source. Calls follow the shape of the dose curve; as a rule, active = well fitted inhibition curve with a large enough effect; inconclusive = small, poorly fitted or top-dose-only effect; inactive = flat fitted curve, though single readings scatter.
// allowed return values: active, inactive

CC(CSC(=O)c1ccccc1)C(=O)N1C[C@@H](Sc2ccccc2)C[C@H]1C(=O)O (some centres undefined); inactive
CCCCCCCCCCOc1cc2c(=O)c(C(=O)OCC)c[nH]c2cc1OCC; active
OC[C@@H](O)[C@@H](O)[C@H](O)[C@H](O)CO; inactive
CC[N+](CC)(CC(=O)Nc1c(C)cccc1C)Cc1ccccc1; inactive

What classification did CCCCC1(COC(=O)CCC(=O)O)C(=O)N(c2ccccc2)N(c2ccccc2)C1=O end up with in this test?
inactive
